Biological target: SARS-CoV-2 wild-type RBD (SARS-CoV-2 wild type)
Experiment: BLI
Settings: both partners purified
QUANTITY NAME: Kd (pM)
Please respond with the number in pM and leave the unit unwritten.

C092 (antibody, V domains shown, human IgG1) VH: QVQLVQSGAEVKKPGSSVKVSCKASGGSFTNHFISWVRQAPGQGLEWMGRIIPILGTANYAQNFQGRVMMTADKSTSTAYMELSSLRSEDTAVYYCARDSGYSGYGSTYYMDVWGKGTTVTVSS VL: QSVLTQPPSVSGAPGQRVTISCTGSNSNIGAGYDVHWYQQLPGAAPKLLIYGNNNRPSGVPDRFSGSKSDTSASLAITGLQVEDEADYYCQSYDSSLSDSVFGSGTKVTVL: 160
C832 (antibody, V domains shown, human IgG1) VH: QVQLVQSGAEVKKPGSSVKVSCKASGGTFSSYSISWVRQAPGQGLEWMGRIIPILGIASYAQKFQGRVTITADKSTSTVYMELTGLRSDDTAVYYCARDRGYSDYGSHYYMDVWGKGTTVTVSS VL: QSVLTQPPSVSGAPGQRVTISCTGSSSNIGAGYDVHWYQQLPGTAPKLLIYINSNRPSGVPDRFSGSKSGTSASLAITGLQAEDEADYYCQSYDSSLSDSVFGGGTKLTVL: 630
C941 (antibody, V domains shown, human IgG1) VH: QVQLVQSGAEVKKPGSSVKVSCKASGGTSRSYPISWVRQAPGQGLEWMGRIIPIVGTANYAQRFQGRVTITADESTGTAYMELSSLRSEDTAVYYCARNRGYSDYGSVYYFDYWGQGTLVTVSS VL: QSVLTQPPSVSGAPGQRVTISCTGSSSNIGAGYDVHWYQQLPGAAPKLLIYRNINRPSGVPDRFSGSKSGTSASLAITGLQADDEADYYCQSYDSSLSGSVFGGGTKLTV: 770

Next:
Short answer for C091 (antibody, V domains shown, human IgG1) VH: QVQLVQSGAEVKKPGSSVKVSCKASGGTFSSYTISWVRQAPGQGLEWMGRIIPILGIANYAQKFQGRVTITADKSTSTAYMELSSLRSEDTAVYYCARDSGYSGYGSTYYMDVWGKGTTVTVSS VL: QSVLTQPPSVSGAPGQRVTISCTGSSSNIGAGYDVHWYQQLPGTAPKLLIYGNSNRPSGVPDRFSGSKSGTSASLAITGLQAEDEADYYCQSYDSSLSGSVFGTVTKVTVL : Kd was 9750
